This collection of values is drawn from paper PMC5772355.

Parameter pIC50: see the listing below.
# experimental_target: xCT (SLC7A11), system xc− (Mus musculus, UniProt Q9WTR6)
# Construct: coding region of murine xCT, stably overexpressed in MEF; with 4F2 heavy chain (SLC3A2)
# Sequence (Q9WTR6 1-502): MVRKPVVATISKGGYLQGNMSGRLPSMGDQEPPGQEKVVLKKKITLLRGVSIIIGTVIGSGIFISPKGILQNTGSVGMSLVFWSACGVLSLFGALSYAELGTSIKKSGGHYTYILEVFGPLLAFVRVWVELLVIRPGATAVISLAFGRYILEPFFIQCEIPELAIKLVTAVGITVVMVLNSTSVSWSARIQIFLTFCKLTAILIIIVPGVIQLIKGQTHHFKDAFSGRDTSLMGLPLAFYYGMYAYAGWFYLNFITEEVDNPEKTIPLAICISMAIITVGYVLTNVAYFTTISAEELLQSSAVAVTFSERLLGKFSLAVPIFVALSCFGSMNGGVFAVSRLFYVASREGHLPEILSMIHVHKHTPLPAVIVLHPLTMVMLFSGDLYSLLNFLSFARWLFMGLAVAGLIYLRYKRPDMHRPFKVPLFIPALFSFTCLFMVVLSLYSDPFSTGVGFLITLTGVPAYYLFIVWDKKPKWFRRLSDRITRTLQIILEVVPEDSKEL
# Sequence (P10852 1-526 partner): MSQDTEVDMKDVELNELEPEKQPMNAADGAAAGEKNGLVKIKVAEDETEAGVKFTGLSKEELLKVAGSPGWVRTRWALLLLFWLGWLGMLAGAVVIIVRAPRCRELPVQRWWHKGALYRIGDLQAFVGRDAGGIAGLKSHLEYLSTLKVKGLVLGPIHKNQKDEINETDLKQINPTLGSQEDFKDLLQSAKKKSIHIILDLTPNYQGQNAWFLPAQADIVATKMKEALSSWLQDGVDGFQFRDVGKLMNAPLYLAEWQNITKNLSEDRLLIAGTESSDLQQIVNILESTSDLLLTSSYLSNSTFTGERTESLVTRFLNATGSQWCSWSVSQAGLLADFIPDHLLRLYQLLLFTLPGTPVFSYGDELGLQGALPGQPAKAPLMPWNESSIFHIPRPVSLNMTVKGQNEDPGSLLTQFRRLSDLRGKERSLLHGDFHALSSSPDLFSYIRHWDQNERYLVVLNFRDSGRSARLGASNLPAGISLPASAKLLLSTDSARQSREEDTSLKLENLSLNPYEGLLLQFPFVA
# assay_info: inhibition of L-[…]cystine uptake in xCT-overexpressing MEF
When answering, recall that pIC50 equals minus log10 of the concentration in mol/L, and write that number alone.

Consider the following illustrative entries.
O=C(O)c1cc(/N=N/c2ccc(S(=O)(=O)Nc3ccccn3)cc2)ccc1O    4.58
N[C@@H](Cn1oc(=O)[nH]c1=O)C(=O)O    4.81

As a next step, examine the molecule that follows.
Task: What value of pIC50 has been reported for the following molecule? CCOc1ccccc1-n1c(C(C)N2CCN(C(=O)COc3ccc(Cl)cc3)CC2)nc2ccccc2c1=O (stereo not drawn)
Result: 5.85
